Test Summary: Lipophilicity, logD of compound
Experimental Context: octanol/water
Value Kind: logD
Format: numeric value only, no unit, no commentary.

QUERY: Recall and state the measured logD for Fc1cccc2[nH]c(CN3CCC(c4nc(-c5cc6ccccc6o5)cs4)CC3)nc12 .
RESULT: 3.7

QUERY: Recall and state the measured logD for c1ccc2oc(-c3csc(C4CCN(Cc5cn6ncccc6n5)CC4)n3)cc2c1 .
RESULT: 3.1

QUERY: Recall and state the measured logD for c1ccc2oc(-c3csc(C4CCN(Cc5nc6ccccc6s5)CC4)n3)cc2c1 .
RESULT: 5.6

QUERY: Recall and state the measured logD for CC(C)(c1nc2ccccc2[nH]1)N1CCC(c2nc(-c3cc4ccccc4o3)cs2)CC1 .
RESULT: 3.8

QUERY: Recall and state the measured logD for N#Cc1ccc2oc(-c3csc(C4CCN(Cc5nc6ccccc6[nH]5)CC4)n3)cc2c1 .
RESULT: 3

QUERY: Recall and state the measured logD for c1coc(-c2csc(C3CCN(Cc4nc5ccccc5[nH]4)CC3)n2)c1 .
RESULT: 2.6

QUERY: Recall and state the measured logD for Cn1c(-c2csc(C3CCN(Cc4nc5ccccc5[nH]4)CC3)n2)nc2ccccc21 .
RESULT: 2.5
